assay_notes: soluble on expression in E. coli; label from the status in PepcDB or PDB records
reported_property: soluble on expression in E. coli

INSERT INTO measurements (chain_sequence, reported_property, reported_measurement) VALUES
  ('ESKSPIIQNVLSYITEHFSEGMSLKTLGNDFHINAVYLGQLFQKEMGEHFTDYLNRYRVNYAKEELLQTKDNLTIIAGKSGYTDMAYFYRQFKKHTGETPNRYRKIHQ', 'soluble on expression in E. coli', 'soluble'),
  ('MEHIEIRVSATGSMSSFHALCSFHQWPINVACSCWLSHCYRIYSLYPPQLVSCSDRLSTSGNTNAGAEFVTE', 'soluble on expression in E. coli', 'soluble'),
  ('SACSRDTPEAPQSTSATSSAAPSTTSASTTAPSSASASSITQTSKVSSQAEAPTSVPPMLDSKHKNVQRAFEQFGALAPESLFAQFDTCDANGVQNSMACSGHDVGQFQFFKSDAKAASTTQLLTELRSSRVIEDTGRR', 'soluble on expression in E. coli', 'not soluble'),
  ('MRFERFVGIDPSLRTGFVALSPFGEVIEAKEIEKEGDDPARMSKLIQVVVDSVHDTDFVAIEGFGYASQRGFLLGGIGWGMRMELYRRGIPYIDVAPSLLKKFAGAKGNANKEKVVLEVYKRWGFESDSNNVIDAFVLAQIARAAKTETKLIQAQKEVLNKLFK', 'soluble on expression in E. coli', 'not soluble');

Lab note: MGSDKIHHHHHHMLSIERQCQCMQLLIETFTVPIEIRALKTANIYRLETDDSAFLIDSGMSDNSIKSIEQNLKKIDFVFITHLHIDHLGGVLYLHEKYGIPAYMNHLDLDLIMNANEDRDGYIKRHSEIFRVNGVPPSMVEEIITMHPVIRYFDYYSKLDFVQDYRKINASGIKFVEVPGHSPGSTAVYIEDSRDLFAGDHILDRITPNIAVYGDEDDLGNYLESLEKVRAMKVDRIFPGHGNVITEPKIRIDDIEKHHHDRMRAIIAALKSPKTAYEVARDITWSKGRKMDTMNFMERNFAILETVSHLKHMDRKGMVRRIEENGIIKYSYIQ gave soluble on expression in E. coli of not soluble
